target: acetylcholine receptor; assay: SPR, peptide at 10 µM on acetylcholine receptor
In this section we review reported Binding affinity (RU) values for a set of binders.
Field: numeric (RU). Do not append units.

BINDER	DISPLAY_UNIT	ASSAY_VALUE
KLLYR [5mer-355]	RU	87
RQIRR [5mer-65]	RU	67
RGVYR [5mer-385]	RU	51

Turning now to a further record.
Memo: KQLTK [5mer-62] , reported Binding affinity (RU): 70
